System: Penicillium chrysogenum
PROTOCOL NOTES: Antifungal activity against Penicillium chrysogenum after 48 hrs
Format: functional
Exercise: state measured MFC for each of the molecules provided.
One number for each entry, in µg/mL.

Consider the following illustrative entries.
- INPUT SMILES: "O=S(=O)(c1ccc(Cl)cc1)c1c(-c2ccc(Cl)cc2)noc1-c1ccc(-c2onc(-c3ccc(Cl)cc3)c2S(=O)(=O)c2ccc(Cl)cc2)cc1"
  MFC / µg/mL: 50
- INPUT SMILES: "Cc1ccc(S(=O)(=O)c2c(-c3ccc(Cl)cc3)noc2-c2ccc(-c3onc(-c4ccc(Cl)cc4)c3S(=O)(=O)c3ccc(C)cc3)cc2)cc1"
  MFC / µg/mL: 100

# evaluate next
Query block: Returns the measured MFC for the input molecule. Input: `O=S(=O)(c1ccccc1)c1c(-c2ccc(Cl)cc2)noc1-c1ccc(-c2onc(-c3ccc(Cl)cc3)c2S(=O)(=O)c2ccccc2)cc1`
Result block: 100

* * *

Test system: Pseudomonas aeruginosa
PROTOCOL NOTES: Antibacterial activity against Pseudomonas aeruginosa at 50 ug/well after 24 hrs by agar well diffusion method
Format: functional
SETUP CONDITIONS: read-out: DIZ
READOUT: zone of inhibition at 50 µg/disc (mm)
Answers are plain numbers, in mm.

- INPUT SMILES: "Cc1ccc(S(=O)(=O)c2c(-c3ccc(Cl)cc3)nn(-c3ccccc3)c2-c2ccc(-c3c(S(=O)(=O)c4ccc(C)cc4)c(-c4ccc(Cl)cc4)nn3-c3ccccc3)cc2)cc1"
  zone of inhibition at 50 µg/disc (mm): 15
- INPUT SMILES: "COc1ccc(-c2nn(-c3ccccc3)c(-c3ccc(-c4c(S(=O)(=O)c5ccc(Cl)cc5)c(-c5ccc(OC)cc5)nn4-c4ccccc4)cc3)c2S(=O)(=O)c2ccc(Cl)cc2)cc1"
  zone of inhibition at 50 µg/disc (mm): 14
- INPUT SMILES: "O=S(=O)(c1ccccc1)c1c(-c2ccc(Cl)cc2)noc1-c1ccc(-c2onc(-c3ccc(Cl)cc3)c2S(=O)(=O)c2ccccc2)cc1"
  zone of inhibition at 50 µg/disc (mm): 24

I would be grateful if you could provide zone of inhibition at 50 µg/disc for each of the following entries.
1. O=S(=O)(c1ccc(Cl)cc1)c1c(-c2ccc(Cl)cc2)noc1-c1ccc(-c2onc(-c3ccc(Cl)cc3)c2S(=O)(=O)c2ccc(Cl)cc2)cc1
2. COc1ccc(-c2nn(-c3ccccc3)c(-c3ccc(-c4c(S(=O)(=O)c5ccccc5)c(-c5ccc(OC)cc5)nn4-c4ccccc4)cc3)c2S(=O)(=O)c2ccccc2)cc1

Result block:
1. 25
2. 12

Query block: Enter reported zone of inhibition at 50 µg/disc observed with Pseudomonas aeruginosa for `COc1ccc(-c2noc(-c3ccc(-c4onc(-c5ccc(OC)cc5)c4S(=O)(=O)c4ccccc4)cc3)c2S(=O)(=O)c2ccccc2)cc1`
Result block: 16

* * *

Exercise: state measured zone of inhibition at 50 µg/disc for each of the compounds provided.
System: Aspergillus niger
PROTOCOL NOTES: Antifungal activity against Aspergillus niger at 50 ug/well after 48 hrs by agar well diffusion method
Assay type: functional
SETUP CONDITIONS: read-out: DIZ
Numbers only, in mm.

I would be grateful if you could provide zone of inhibition at 50 µg/disc for each of the following entries.
1. COc1ccc(-c2noc(-c3ccc(-c4onc(-c5ccc(OC)cc5)c4S(=O)(=O)c4ccc(Cl)cc4)cc3)c2S(=O)(=O)c2ccc(Cl)cc2)cc1
2. COc1ccc(C2=NN(c3ccccc3)C(c3ccc(C4C(S(=O)(=O)c5ccc(Cl)cc5)C(c5ccc(OC)cc5)=NN4c4ccccc4)cc3)C2S(=O)(=O)c2ccc(Cl)cc2)cc1 (stereo not drawn)

Result block:
1: 23; 2: 10

I would be grateful if you could provide zone of inhibition at 50 µg/disc for each of the following entries.
1. COc1ccc(-c2nn(-c3ccccc3)c(-c3ccc(-c4c(S(=O)(=O)c5ccccc5)c(-c5ccc(OC)cc5)nn4-c4ccccc4)cc3)c2S(=O)(=O)c2ccccc2)cc1
2. CC(=O)N1CCN(c2ccc(OCC3COC(Cn4ccnc4)(c4ccc(Cl)cc4Cl)O3)cc2)CC1 (stereo not drawn)
3. O=S(=O)(c1ccccc1)c1c(-c2ccc(Cl)cc2)noc1-c1ccc(-c2onc(-c3ccc(Cl)cc3)c2S(=O)(=O)c2ccccc2)cc1

Result block:
1. 20
2. 33
3. 29

I would be grateful if you could provide zone of inhibition at 50 µg/disc for each of the following entries.
1. COc1ccc(-c2nn(-c3ccccc3)c(-c3ccc(-c4c(S(=O)(=O)c5ccc(Cl)cc5)c(-c5ccc(OC)cc5)nn4-c4ccccc4)cc3)c2S(=O)(=O)c2ccc(Cl)cc2)cc1
2. Cc1ccc(S(=O)(=O)c2c(-c3ccc(Cl)cc3)nn(-c3ccccc3)c2-c2ccc(-c3c(S(=O)(=O)c4ccc(C)cc4)c(-c4ccc(Cl)cc4)nn3-c3ccccc3)cc2)cc1
3. COc1ccc(-c2noc(-c3ccc(-c4onc(-c5ccc(OC)cc5)c4S(=O)(=O)c4ccccc4)cc3)c2S(=O)(=O)c2ccccc2)cc1
4. COc1ccc(C2=NOC(c3ccc(C4ON=C(c5ccc(OC)cc5)C4S(=O)(=O)c4ccccc4)cc3)C2S(=O)(=O)c2ccccc2)cc1 (stereo not drawn)
5. O=S(=O)(c1ccccc1)C1C(c2ccc(Cl)cc2)=NOC1c1ccc(C2ON=C(c3ccc(Cl)cc3)C2S(=O)(=O)c2ccccc2)cc1 (stereo not drawn)

Result block:
25
22
27
18
15

I would be grateful if you could provide zone of inhibition at 50 µg/disc for each of the following entries.
1. COc1ccc(C2=NN(c3ccccc3)C(c3ccc(C4C(S(=O)(=O)c5ccccc5)C(c5ccc(OC)cc5)=NN4c4ccccc4)cc3)C2S(=O)(=O)c2ccccc2)cc1 (stereo not drawn)
2. O=S(=O)(c1ccc(Cl)cc1)c1c(-c2ccc(Cl)cc2)nn(-c2ccccc2)c1-c1ccc(-c2c(S(=O)(=O)c3ccc(Cl)cc3)c(-c3ccc(Cl)cc3)nn2-c2ccccc2)cc1
3. Cc1ccc(S(=O)(=O)C2C(c3ccc(Cl)cc3)=NOC2c2ccc(C3ON=C(c4ccc(Cl)cc4)C3S(=O)(=O)c3ccc(C)cc3)cc2)cc1 (stereo not drawn)

Result block:
1: 8; 2: 34; 3: 15
